Provide the reported remaining at 3 h, 1 mg/mL of each item.
Test system: trypsin
Assay: stability towards proteolysis by trypsin in human serum
Assay type: in vitro ADME
Settings: human serum, 37° C., 180 mins; read-out: AMOUNT RECOVERED % after 180 mins
Ends that are not written are not given here.
Number plus unit, in that order.

Returns the measured remaining at 3 h, 1 mg/mL for the input substance. Input: RYVRYVRYV [Peptide X]
0%

Any idea what its remaining at 3 h, 1 mg/mL is? The substance is KFLKFLK [Peptide IX]
0%

Need remaining at 3 h, 1 mg/mL of IKTKKFLKKT [Peptide VII] , thanks.
28%

Record request: remaining at 3 h, 1 mg/mL value, item IKFLKFLKFLK [Peptide VIII]
0%
